Data credit: paper PMC2688778

- assaySystem: T1, RecE564 R858A (Escherichia coli K12, UniProt P15032 564-866, R858A)
- T1 sequence: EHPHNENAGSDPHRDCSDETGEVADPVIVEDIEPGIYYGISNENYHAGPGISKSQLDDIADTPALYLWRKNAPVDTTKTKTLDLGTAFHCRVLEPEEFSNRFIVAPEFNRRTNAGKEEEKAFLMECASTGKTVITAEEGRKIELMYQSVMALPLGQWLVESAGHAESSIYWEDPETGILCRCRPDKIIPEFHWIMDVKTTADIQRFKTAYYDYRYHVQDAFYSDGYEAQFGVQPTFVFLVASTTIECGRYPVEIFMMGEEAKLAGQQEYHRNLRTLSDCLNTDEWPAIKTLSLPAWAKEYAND
- assayDetails: fluorescence anisotropy

| binder | unitString | Kd |
| --- | --- | --- |
| F25 (dsDNA) DNA 1: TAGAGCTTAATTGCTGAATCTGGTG DNA 2: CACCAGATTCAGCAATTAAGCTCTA | nM | 77 |
